# System Tested: mouse fibroblast cell line transfected with the HER-2 oncogene (3T3/neu) (UniProt P04626, cells depend on it, species not given)
# Procedure Details: Cell proliferation assay (SRB), 3T3/neu
# Type: cell-based
# Experimental Conditions: EGFR −, Her-2 +++; 2 days, SRB; read-out: CELL IC50 3T3/NEU (converted)
Test Readout: GI50 (µM)

{"Sample Smiles": "CCOc1cc2ncc(C#N)c(Nc3ccc(Sc4nccc(C)n4)c(Cl)c3)c2cc1[N+](=O)[O-]", "GI50 (µM)": 3.02}
{"Sample Smiles": "CCOc1cc2ncc(C#N)c(Nc3ccc(Cn4ccnc4)c(Cl)c3)c2cc1NC(=O)/C=C/CN(C)C", "GI50 (µM)": 1.87}

(A) CCOc1cc2ncc(C#N)c(Nc3ccc(Nc4nnc(C(F)(F)F)s4)c(Cl)c3)c2cc1[N+](=O)[O-]
(B) COc1cc2ncc(C#N)c(Nc3ccc(Sc4ncc(-c5ccccc5)s4)c(Cl)c3)c2cc1NC(=O)/C=C/CN(C)C
Task: Select the item with the higher value of GI50 from the options A and B listed. # answer = label of selected item
Output: A
(A: 3.53 µM, B: 0.191 µM)
